Test: ATG_TA_CIS: Attagene CIS-FACTORIAL HepG2 Assay for human TA Basal Promoter (AID 2282964)
Conditions: HepG2 Attagene CIS-factorial TA basal promoter reporter; actives raise or lower the signal
The source made the active and inactive calls. The calls were made as follows: active = hit-call score of the fitted dose curve at least 0.9, where 1 is the maximum; inactive = score below 0.9.
Your answer must be one of the following: 1 (yes) for active, 0 (no) for inactive

Known results for compounds:
> print(dat)
                                   compound  category
1  COc1cc(C=O)cc2c1[C@H](COC(N)=O)[C@]1(OC(C)=O)ON2C[C@H]2[C@@H]1N2C(C)=O   1 (yes)
2                              Cc1ccc(N)cc1    0 (no)
3                                 O=C1CCCO1    0 (no)
4                   O=[N+]([O-])C(Br)(CO)CO    0 (no)
5                   Nc1cc(Cl)cc(C(=O)O)c1Cl    0 (no)

Q: Short answer needed: outcome of this test for Nc1ccc([N+](=O)[O-])cc1 ?
Result: 0 (no)

Q: Short answer needed: outcome of this test for O=C(Oc1ccc(Br)cc1)N1CCN2CCC1CC2 ?
Result: 0 (no)

Q: Short answer needed: outcome of this test for c1ccc2c(c1)oc1ccccc12 ?
Result: 0 (no)

Q: Short answer needed: outcome of this test for CCCCCCCCn1sccc1=O ?
Result: 0 (no)

Q: Short answer needed: outcome of this test for Clc1ccc(Cl)c(Cl)c1 ?
Result: 0 (no)

Q: Short answer needed: outcome of this test for [Cl-].[Cl-].[Hg+2] ?
Result: 0 (no)

Q: Short answer needed: outcome of this test for Cc1ccc(N)c(N)c1 ?
Result: 0 (no)

Q: Short answer needed: outcome of this test for ClCCOCCCl ?
Result: 0 (no)

Q: Short answer needed: outcome of this test for OCCCBr ?
Result: 0 (no)

Q: Short answer needed: outcome of this test for CCCCCCCCOC(=O)c1ccc(C(=O)OCCCCCCCC)c(C(=O)OCCCCCCCC)c1 ?
Result: 0 (no)

Q: Short answer needed: outcome of this test for c1ccc(N=Nc2ccccc2)cc1 ?
Result: 0 (no)

Q: Short answer needed: outcome of this test for Oc1ccccc1Cl ?
Result: 0 (no)

Q: Short answer needed: outcome of this test for CCCCC(CC)COC(=O)c1ccc(C(=O)OCC(CC)CCCC)c(C(=O)OCC(CC)CCCC)c1 (centres undefined) ?
Result: 0 (no)

Q: Short answer needed: outcome of this test for CC(C)(O)c1cnn2c(-c3ccc(F)c(-c4c(F)cccc4C#N)c3)cnc2n1 ?
Result: 1 (yes)

Q: Short answer needed: outcome of this test for C[C@]12C=CC3=C4CCC(=O)C=C4CC[C@H]3[C@@H]1CC[C@@H]2O ?
Result: 0 (no)

* * *

Biological target: human Dual Specificity Protein Phosphatase 3 (DUSP3), DUSP3 (gene 1845)
Assay: NVS_ENZ_hDUSP3: NovaScreen (NVS) Enzymatic Assay for human Dual Specificity Protein Phosphatase 3 (DUSP3) (AID 2283152);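 also: phosphatase activity of recombinant human DUSP3 on a fluorogenic substrate without cells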
Activity calls are given as the source filed them. How the source made its calls: active means hit-call score of the fitted dose curve at least 0.9, where 1 is the maximum; inconclusive means response in the unintended direction; inactive means score below 0.9.
Your answer must be one of the following: active, inactive

> print(dat)
            smiles.str                             target.entity  category
1  C1=Cc2cccc3cccc1c23  human Dual Specificity Protein Phosphatase 3 (DUSP3), DUSP3 (gene 1845)  inactive

Q: Short answer needed: outcome of this test for Cc1ccc(N=C=O)cc1N=C=O ?
Result: active

Q: Short answer needed: outcome of this test for CCCCCCCCn1sccc1=O ?
Result: active

Q: Short answer needed: outcome of this test for CCC[CH2][Sn]([Cl])([CH2]CCC)[CH2]CCC ?
Result: active

Q: Short answer needed: outcome of this test for CC(C)(O)c1cnn2c(-c3ccc(F)c(-c4c(F)cccc4C#N)c3)cnc2n1 ?
Result: active
